assay: physchem; format: physicochemical; details: pH 2.7
Marks after values point to notes of the source that are not given here.
A collection of compounds and their measured log p
measure_name: log p

| compound | measured_value |
| --- | --- |
| CCc1nc(-c2ccc(F)cc2)c(-c2ccnc(NC(C)c3ccccc3)c2)s1 (stereo not shown) | 2.39^[b] |
| C=CCNc1cc(-c2sc(CC)nc2-c2ccc(F)cc2)ccn1 | 1.67^[b] |
| CCc1nc(-c2ccc(F)cc2)c(-c2ccnc(NCCc3ccccc3)c2)s1 | 2.17^[b] |
| CCc1nc(-c2ccc(F)cc2)c(-c2ccnc(NS(C)(=O)=O)c2)s1 | 2.36^[b] |
| CCc1nc(-c2ccc(F)cc2)c(-c2ccnc(NC(=O)c3ccsc3)c2)s1 | 3.83^[b] |
| CCc1nc(-c2ccc(F)cc2)c(-c2ccnc(NC(=O)OC)c2)s1 | 3.14^[b] |
| CCc1nc(-c2ccc(Cl)s2)c(-c2ccncc2)s1 | 3.06^[b] |
| Fc1ccc(-c2nc(C(F)F)sc2-c2ccncc2)cc1 | 2.48^[b] |
| CC(C)(C)c1nc(-c2ccc(F)cc2)c(-c2ccncc2)s1 | 3.29^[b] |
| CC(C)c1nc(-c2ccc(F)cc2)c(-c2ccncc2)s1 | 2.56^[b] |
| CCc1nc(-c2ccc(F)cc2)c(-c2ccnc(NC3CCCC3)c2)s1 | 1.94^[b] |
| CCc1nc(-c2ccc(F)cc2)c(-c2ccnc(N(S(C)(=O)=O)S(C)(=O)=O)c2)s1 | 3.23^[b] |
| CCc1nc(-c2ccc(F)cc2)c(-c2ccnc(NC(=O)C(C)(C)C)c2)s1 | 4.18^[b] |
| CCc1nc(-c2ccc(F)cc2)c(-c2ccnc(NC(=O)OC(C)(C)C)c2)s1 | 4.63^[b] |
| C=C(C)C(=O)Nc1cc(-c2sc(CC)nc2-c2ccc(F)cc2)ccn1 | 3.6^[b] |
| CCc1nc(-c2ccc(F)cc2)c(-c2ccnc(N(C)C(C)=O)c2)s1 | 2.71^[b] |
| CCc1nc(-c2ccc(F)cc2)c(-c2ccnc(NC(=O)C3CC3)c2)s1 | 3.22^[b] |
| Cc1nc(-c2ccc(F)cc2)c(-c2ccncc2)s1 | 1.48^[b] |
| CCc1nc(-c2ccc(C)c(C)c2)c(-c2ccncc2)s1 | 2.49^[b] |
